system: SK-MEL-28; test: NCI60 five-dose screen; assay type: cell-based; details: Homo sapiens, SK-MEL-28
Labelling field: enter True if recorded GI50 is less than 0.5 µM. Enter False if it equals or exceeds that cut-off.

Here are 2 compounds together with their reported answers.
• CC[C@]12C=CCN3CC[C@@]4(c5ccc(OC)cc5N(C)[C@H]4[C@@](O)(C(=O)OC)[C@@H]1OC(=O)CCCC[P+](c1ccc(C)cc1)(c1ccc(C)cc1)c1ccc(C)cc1)[C@@H]32 [10a] = True
• CC[C@]12C=CCN3CC[C@@]4(c5ccc(OC)cc5N(C)[C@H]4[C@@](O)(C(=O)OC)[C@@H]1OC(=O)CCCC[P+](C1CCCCC1)(C1CCCCC1)C1CCCCC1)[C@@H]32 [10d] = False

For the next question, use this compound.
hey, is GI50 for CC[C@]12C=CCN3CC[C@@]4(c5ccc(OC)cc5N(C)[C@H]4[C@@](O)(C(=O)OC)[C@@H]1OC(=O)CCCC[P+](c1ccccc1)(c1ccccc1)c1ccccc1)[C@@H]32 [compound 4, reference compound] lower than 0.5 µM or not?
False

---

test system: SK-MEL-28; experiment: NCI60 one-dose screen; type: cell-based; details: Homo sapiens; SK-MEL-28, 10 μM, one-dose; read-out: Growth percent
Please go through the items and note down their activity at 10 µM.
// unit must come after the numeric part

Please review the following examples before continuing.
- CC[C@]12C=CCN3CC[C@@]4(c5ccc(OC)cc5N(C)[C@H]4[C@@](O)(C(=O)OC)[C@@H]1OC(=O)CCCC[P+](c1ccc(F)cc1)(c1ccc(F)cc1)c1ccc(F)cc1)[C@@H]32 [10c]: -54.9%
- CC[C@]12C=CCN3CC[C@@]4(c5ccc(OC)cc5N(C)[C@H]4[C@@](O)(C(=O)OC)[C@@H]1OC(=O)CCC[P+](c1ccc(OC)cc1)(c1ccc(OC)cc1)c1ccc(OC)cc1)[C@@H]32: -96.3%
- CC[C@]12C=CCN3CC[C@@]4(c5ccc(OC)cc5N(C)[C@H]4[C@@](O)(C(=O)OC)[C@@H]1OC(=O)CCC[P+](c1cc(C)c(OC)c(C)c1)(c1cc(C)c(OC)c(C)c1)c1cc(C)c(OC)c(C)c1)[C@@H]32: -98.2%

Lab note: each compound below needs its activity at 10 µM filled in.
1. CC[C@]12C=CCN3CC[C@@]4(c5ccc(OC)cc5N(C)[C@H]4[C@@](O)(C(=O)OC)[C@@H]1OC(=O)CCC[P+](c1ccccc1)(c1ccccc1)c1ccccc1)[C@@H]32 [compound 3, reference compound]
2. CCC12C=CCN3CCC4(c5ccc(OC)cc5N(C)C4C(O)(C(=O)OC)C1OC(=O)c1ccc(C[P+](c4ccccc4)(c4ccccc4)c4ccccc4)cc1)C32 (centres unmarked)

20.9%
-92.4%

---

test system: COLO 205; assay: NCI60 one-dose screen; format: cell-based; details: Homo sapiens, COLO 205, read-out: Growth percent
Labelling field: enter true (1) if recorded activity at 10 µM is less than -60%. Enter false (0) if it equals or exceeds that cut-off.

Here are 3 compounds together with their reported answers.
- CC[C@]12C=CCN3CC[C@@]4(c5ccc(OC)cc5N(C)[C@H]4[C@@](O)(C(=O)OC)[C@@H]1OC(=O)CCC[P+](C1CCCCC1)(C1CCCCC1)C1CCCCC1)[C@@H]32: true (1)
- CC[C@]12C=CCN3CC[C@@]4(c5ccc(OC)cc5N(C)[C@H]4[C@@](O)(C(=O)OC)[C@@H]1OC(=O)CCC[P+](c1ccc(F)cc1)(c1ccc(F)cc1)c1ccc(F)cc1)[C@@H]32: false (0)
- CC[C@]12C=CCN3CC[C@@]4(c5ccc(OC)cc5N(C)[C@H]4[C@@](O)(C(=O)OC)[C@@H]1OC(=O)CCCC[P+](c1ccc(C)cc1)(c1ccc(C)cc1)c1ccc(C)cc1)[C@@H]32 [10a]: true (1)

hey, is activity at 10 µM for CC[C@]12C=CCN3CC[C@@]4(c5ccc(OC)cc5N(C)[C@H]4[C@@](O)(C(=O)OC)[C@@H]1OC(=O)CCC[P+](c1ccccc1)(c1ccccc1)c1ccccc1OC)[C@@H]32 lower than -60% or not?
true (1)

hey, is activity at 10 µM for CC[C@]12C=CCN3CC[C@@]4(c5ccc(OC)cc5N(C)[C@H]4[C@@](O)(C(=O)OC)[C@@H]1OC(=O)CCCC[P+](c1ccccc1)(c1ccccc1)c1ccccc1)[C@@H]32 [compound 4, reference compound] lower than -60% or not?
true (1)
